# Target desc: human EP3 receptor (hEP3, D isoform) (Homo sapiens, UniProt P43115)
# Construct: plasma membrane fraction
# Sequence (P43115 1-374 isoform P43115-4): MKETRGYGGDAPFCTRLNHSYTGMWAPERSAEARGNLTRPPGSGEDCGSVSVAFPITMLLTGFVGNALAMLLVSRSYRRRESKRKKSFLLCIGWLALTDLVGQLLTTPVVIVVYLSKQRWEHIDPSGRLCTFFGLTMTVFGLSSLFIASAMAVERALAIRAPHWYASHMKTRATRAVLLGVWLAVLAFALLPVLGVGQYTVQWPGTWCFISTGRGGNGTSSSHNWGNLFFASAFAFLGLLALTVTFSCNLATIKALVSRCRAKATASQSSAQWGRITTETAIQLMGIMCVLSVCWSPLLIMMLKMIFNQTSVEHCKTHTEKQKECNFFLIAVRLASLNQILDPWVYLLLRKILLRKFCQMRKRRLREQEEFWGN
# Run description: Radioligand binding competition vs [3H]PGE2, human recombinant EP3 receptor
# Settings: [3H]PGE2 competition, plasma membranes of transfected cells (COS-7 transient; HEK-293 also named), 60 min 25° C.
pIC50: −log10 of the molar value.
Readout: pIC50

Recorded results for 6 compounds are shown here.
{"columns": ["Compound", "Meas value"],
 "data": [
  ["O=C(O)CSCCCS[C@H]1C(=O)C[C@@H](O)[C@@H]1/C=C/[C@@H](O)CCc1cc2ccccc2s1 [Example 14H]", "< 5.00"],
  ["COC(=O)CSCCCS[C@H]1C(=O)C[C@@H](O)[C@@H]1/C=C/[C@@H](O)CCc1cc2ccccc2s1 [Example 13L]", 5.14],
  ["COC(=O)CSCCCS[C@H]1C(=O)C[C@@H](O)[C@@H]1/C=C/C(O)Cc1ccc2ccccc2c1 (single isomer, unassigned) [Example 21H]", "< 5.00"],
  ["O=C(O)CSCCCS[C@H]1C(=O)C[C@@H](O)[C@@H]1/C=C/[C@@H](O)CCc1cc2ccccc2s1 [Example 14L]", "< 5.00"],
  ["C[C@@](O)(/C=C/[C@H]1[C@H](O)CC(=O)[C@@H]1SCCCSCC(=O)O)CCc1cc2ccccc2s1 [Example 34H]", "< 5.00"],
  ["O=C(O)CSCCCS[C@H]1C(=O)C[C@@H](O)[C@@H]1/C=C/C(O)Cc1ccc2ccccc2c1 (single isomer, unassigned) [Example 22H]", "< 5.00"]
]}

Value of measured pIC50 for the entry COC(=O)CSCCCS[C@H]1C(=O)C[C@@H](O)[C@@H]1/C=C/C(C)(O)Cc1ccc2ccccc2c1 (stereo partly shown) [Example 30H] : < 5.00

Value of measured pIC50 for the entry COC(=O)CSCCCS[C@H]1C(=O)C[C@@H](O)[C@@H]1/C=C/C(O)CCc1ccc2ccccc2c1 (stereo partly shown) : < 5.00

Value of measured pIC50 for the entry COC(=O)CSCCCS[C@H]1C(=O)C[C@@H](O)[C@@H]1/C=C/C(O)Cc1csc2ccccc12 (single isomer, unassigned) [Example 24L] : < 5.00

Value of measured pIC50 for the entry CC(O)(/C=C/[C@H]1[C@H](O)CC(=O)[C@@H]1SCCCSCC(=O)O)Cc1ccc2ccccc2c1 (stereo partly shown) [Example 31H] : 5.09
